B1: TRAF3IP2 (parent)
chain: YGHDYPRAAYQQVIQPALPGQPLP

- Variants of: B1
- METHOD_DESCRIPTION: protein stability index of a GFP-peptide fusion (GPS, HEK-293T) (PSI 1-6); higher = more stable;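 also: lentivirally expressed fusions sorted by FACS into six bins by GFP to DsRed ratio, PSI derived from sequencing read proportions per bin multiplied by bin number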
- CONDITION_SUMMARY: c terminus: a fixed tail appended
MEASURED_METRIC: protein stability index
Lab note: record the figure alone, no unit after it.

Worked set:
[
  {
    "MUTATION_ID": "P24V",
    "OBSERVED_MEASUREMENT": 2.09
  },
  {
    "MUTATION_ID": "I14Y",
    "OBSERVED_MEASUREMENT": 2.52
  },
  {
    "MUTATION_ID": "V13P",
    "OBSERVED_MEASUREMENT": 2.52
  },
  {
    "MUTATION_ID": "Q15S",
    "OBSERVED_MEASUREMENT": 2.01
  },
  {
    "MUTATION_ID": "A9Q",
    "OBSERVED_MEASUREMENT": 2.2
  }
]

The recorded protein stability index for `P24A` is 2.67

Value of measured protein stability index for the entry `G20F` : 1.8

Value of protein stability index reported for the variant `R7C` is 2.44

// `I14R` : protein stability index value = 1.74

Given item `A8V` , the value recorded as its protein stability index is 2.59

Form field protein stability index, entry `Q15C` : 2.22

# protein stability index (variant: `P6C` ) is 2.26

Entry `Y10L` , protein stability index reported as 2

According to the records, this variant `G2N` displays protein stability index of 2.46

Lab note: `A8E` gave protein stability index of 2.03
